From: patent US10662203B2

# procedure-details: Cytotoxicity assay (HepG2, CellTiter-Blue cell viability)
# Type: cell-based
# experimental-setup: human; HepG2 cells, 3 days treatment; "*": the detection limit; read-out: CC50
Cut-off 40 µM on CC50 at 3 days: below means Satisfied, at or above means Not satisfied.

compound: CNc1cc(F)cc2c1[nH]c1ncc(-c3cnc4c(c3)c(=O)c(C(=O)O)cn4C(C)CO)c(N3CCOCC3)c12 (stereo not drawn)
group: Not satisfied
//
compound: CNc1c(F)c(F)cc2c1[nH]c1ncc(-c3cnc4c(c3)c(=O)c(C(=O)O)cn4C)c(N3CCOC(CN(C)C)C3)c12 (stereo not drawn)
group: Not satisfied
//
compound: CNc1cc(F)cc2c1[nH]c1ncc(-c3cnc4c(c3)c(=O)c(C(=O)O)cn4C)c(N3CCOCC(CN(C)C)C3)c12 (stereo not drawn)
group: Not satisfied

A record lists CNc1cc(F)c(F)c2c1[nH]c1ncc(-c3cnc4c(c3)c(=O)c(C(=O)O)cn4NC)c(N3CCOC(CN(C)C)C3)c12 (stereo not drawn) . Is its CC50 at 3 days below 40 µM? Not satisfied

Item CCN(CC)CC1CN(c2c(-c3cnc4c(c3)c(=O)c(C(=O)O)cn4C)cnc3[nH]c4c(NC)cc(F)c(F)c4c23)CCO1 (stereo not drawn) : CC50 at 3 days beneath 40 µM, strictly? Not satisfied

Confirm or reject: CC50 at 3 days of CNc1cc(F)c(F)c2c1[nH]c1ncc(-c3cnc4c(c3)c(=O)c(C(=O)O)cn4C3CCNC3)c(N(C)C)c12 (stereo not drawn) lies strictly below 40 µM Not satisfied

Below 40 µM on CC50 at 3 days? Entry CNCCn1cc(C(=O)O)c(=O)c2cc(-c3cnc4[nH]c5c(NC)cc(F)c(F)c5c4c3N(C)C)cnc21 Satisfied

A record lists CNc1cc(F)c(F)c2c1[nH]c1ncc(-c3cnc4c(c3)c(=O)c(C(=O)O)cn4C)c(N3CC4CN(C)C[C@@H]4C3)c12 (stereo partly drawn) . Is its CC50 at 3 days below 40 µM? Satisfied

Would you kindly verify if CC50 at 3 days of CNc1cc(F)cc2c1[nH]c1ncc(-c3cnc4c(c3)c(=O)c(C(=O)O)cn4NC)c(N3CC[C@H]4CN(C)C[C@H]43)c12 [Example 3.05A] is strictly less than 40 µM? Not satisfied
